# assayed system: Factor X, P00742
# Sequence (P00742 whole entry, looked up): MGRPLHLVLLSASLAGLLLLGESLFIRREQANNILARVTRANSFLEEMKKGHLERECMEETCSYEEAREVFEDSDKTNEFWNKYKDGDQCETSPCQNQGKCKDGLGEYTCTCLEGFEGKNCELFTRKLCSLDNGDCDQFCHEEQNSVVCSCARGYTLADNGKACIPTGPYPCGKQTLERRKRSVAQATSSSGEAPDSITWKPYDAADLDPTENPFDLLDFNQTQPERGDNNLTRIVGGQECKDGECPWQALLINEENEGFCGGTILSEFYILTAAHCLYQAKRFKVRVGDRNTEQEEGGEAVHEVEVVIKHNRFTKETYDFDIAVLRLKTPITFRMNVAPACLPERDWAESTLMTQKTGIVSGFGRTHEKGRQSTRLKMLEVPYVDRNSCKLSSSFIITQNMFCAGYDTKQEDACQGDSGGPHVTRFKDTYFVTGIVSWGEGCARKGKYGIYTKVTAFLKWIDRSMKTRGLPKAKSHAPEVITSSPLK
quantity: kcat/KM
Please don't drop the unit; write it after the number.

Req: State its kcat/KM for this protein: FIXa-R318Y/R338E/R403E/E410N/T412A (protein) chain 1: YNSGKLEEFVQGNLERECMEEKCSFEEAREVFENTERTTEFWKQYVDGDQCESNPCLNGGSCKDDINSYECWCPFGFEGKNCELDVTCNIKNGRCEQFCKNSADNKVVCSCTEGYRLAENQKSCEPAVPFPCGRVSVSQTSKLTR chain 2: VVGGEDAKPGQFPWQVVLNGKVDAFCGGSIVNEKWIVTAAHCVETGVKITVVAGEHNIEETEHTEQKRNVIRIIPHHNYNAAINKYNHDIALLELDEPLVLNSYVTPICIADKEYTNIFLKFGSGYVSGWGRVFHKGYSALVLQYLRVPLVDRATCLESTKFTIYNNMFCAGFHEGGRDSCQGDSGGPHVTEVEGTSFLTGIISWGEECAMKGKYGIYTKVSEYVNWIKNKAKLT
Resp: 2.6e+08 M⁻¹ s⁻¹

Next:
Req: State its kcat/KM for this protein: FIXa-D104N/K106S/K247N/N249S/N260S (protein) chain 1: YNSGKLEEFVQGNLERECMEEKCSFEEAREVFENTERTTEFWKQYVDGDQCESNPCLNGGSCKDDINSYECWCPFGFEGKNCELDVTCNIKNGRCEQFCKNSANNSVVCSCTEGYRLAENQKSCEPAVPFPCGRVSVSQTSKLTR chain 2: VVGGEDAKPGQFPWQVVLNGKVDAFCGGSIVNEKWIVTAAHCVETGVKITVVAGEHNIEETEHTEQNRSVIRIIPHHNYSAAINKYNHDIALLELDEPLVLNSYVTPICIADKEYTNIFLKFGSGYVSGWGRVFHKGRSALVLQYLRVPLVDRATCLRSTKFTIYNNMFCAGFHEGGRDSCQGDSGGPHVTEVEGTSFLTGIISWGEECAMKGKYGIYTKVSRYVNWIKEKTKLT
Resp: 9.8e+06 M⁻¹ s⁻¹
